The origin of these recorded values is PubChem BioAssay AID463204.

- Tested on: S. cerevisiae Mot1-301 ts growth rescue, BacTiter-Glo ATP luminescence
- assayMethodText: restored Mot1-301 yeast growth at 38.5C – whole organism, S. cerevisiae, Mot1-301 ts mutant, luminescence, dose retest, SUMOylation pathway inhibitor project, confirmation (AID 463204);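 further: growth at restrictive 38.5 degrees C of Mot1-301 OY566 strain; actives raise luminescence by restoring growth of the ts mutant at high temperature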
Active and inactive are the calls of the source.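 How the source made its calls: active means AC50 no more than ten times the top concentration tested, that is within one log above it; inconclusive means flat curve fit with activity between 30% and 70%, or invalid poor fit; inactive means AC50 beyond ten times the top tested dose.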
Field 'call' accepts active, inactive

QUERY: State the result this test recorded for CCOC(=O)c1nc(Nc2ccccc2CC)c2ccccc2n1 .
RESULT: inactive

QUERY: Answer briefly: the call reported for COc1ccc(C2=NN(C(=S)Nc3ccccc3)C(c3ccccc3)C2)cc1 (stereo unspecified) in this assay.
RESULT: inactive

QUERY: Outcome? O=C(CSc1nnc(COc2ccccc2Cl)o1)NC(=O)NC1CCCC1
RESULT: inactive

QUERY: Per the assay record, what outcome was assigned to COc1ccc(-c2cc(C(=O)Nc3cc(C)ccc3O)no2)cc1 ?
RESULT: inactive

QUERY: What call does the record list for CCc1cc2c(=O)c(-c3ccc(F)cc3)c(C(F)(F)F)oc2cc1OCC(=O)O ?
RESULT: inactive

QUERY: Tell me the assay call for COc1ccccc1CNc1ncnc2nc[nH]c12 please.
RESULT: inactive

QUERY: What call does the record list for c1ccc2c(c1)OCCOCCOc1ccccc1OCCOCCO2 ?
RESULT: inactive

QUERY: # lookup: test call for COc1cccc(S(=O)(=O)Nc2cccc(C(=O)N3CCOCC3)c2)c1
RESULT: inactive

QUERY: Given CC(C)C(O)(C(=O)NNc1ccccc1)C(C)C , state the outcome it received in this test.
RESULT: inactive

QUERY: Called result for O=C(CSc1ncnc2nc[nH]c12)Nc1ccccc1C(F)(F)F
RESULT: inactive

QUERY: Dear colleague, could you share the recorded outcome for COc1ccc(-c2cc(CC3(C(=O)O)CCN(C(=O)OC(C)(C)C)CC3)on2)c(OC)c1 when you have a moment?
RESULT: inactive

QUERY: Which outcome was assigned to COc1ccc(NC(=O)c2ccccc2NC(=O)NC2CCCCC2)cc1 in this test?
RESULT: inactive

QUERY: Which outcome was entered for the molecule CCOC(=O)Cc1csc(NC(=O)NC2(C(F)(F)F)Oc3ccccc3O2)n1 in this test?
RESULT: inactive

QUERY: Could you kindly confirm the outcome this assay logged for CCOc1cc(C(=S)N2CCOCC2)ccc1OC(=O)c1ccc(C)cc1 ?
RESULT: inactive

QUERY: What classification did COc1ccc(N(C(=O)c2ccncc2)S(=O)(=O)c2ccc(F)cc2)cc1 end up with in this test?
RESULT: inactive

QUERY: What did the test return for O=C(NCCN1CCOCC1)Nc1ccc(Cl)cc1Cl ?
RESULT: inactive

QUERY: In this assay, the call recorded for O=C(NC1CCCCC1)c1ccc2snnc2c1 was what?
RESULT: inactive

QUERY: Could you kindly confirm the outcome this assay logged for C=CCSc1nnc2c(n1)[nH]c1c(C)cccc12 ?
RESULT: inactive

QUERY: What call does the record list for O=C(c1ccccc1F)N1CCN=C1SCc1cccnc1 ?
RESULT: inactive

QUERY: Please indicate how the test categorized CC1CCN(Cc2nc3c(c(=O)n(C)c(=O)n3C)n2CCc2ccccc2)CC1 .
RESULT: inactive

QUERY: Which outcome was assigned to Cn1c(=NC(=O)COc2ccccc2)sc2cc(F)cc(F)c21 in this test?
RESULT: inactive

QUERY: Fill in: this test's call for CCCCc1nnc(NC(=O)CSc2nc(O)c(-c3ccccc3)c(=O)[nH]2)s1 is ___
RESULT: inactive

QUERY: Recorded test call requested for O=C(Nc1ccc(Cl)cc1)C1=Cc2ccccc2OC1
RESULT: active

QUERY: Could you check what this test reported for Cn1c(C(=O)NCCc2ccsc2)cc2c(=O)n(C)c3ccccc3c21 ?
RESULT: inactive

QUERY: Which outcome was entered for the molecule Cc1cc(C)c[n+](-c2nc3ccccc3nc2[N-]S(=O)(=O)c2ccc(Br)s2)c1 in this test?
RESULT: inactive

QUERY: Hi, do you know how Cc1cnc(=O)[nH]c1SCC(=O)c1ccc(F)cc1 came out in this test?
RESULT: inactive

QUERY: Please share the test call associated with CCOC(=O)C(NC(=O)c1ccccc1)(N1CCOCC1)C(F)(F)F (stereo unspecified) .
RESULT: inactive

QUERY: # outcome recorded in this test, key = Clc1ccc(CONc2ncnc3nonc23)c(Cl)c1
RESULT: active

QUERY: Name the outcome recorded for CCCc1nn2c(=O)cc(CSCC(=O)Nc3ccc(OC)cc3)nc2s1 in the assay.
RESULT: inactive

QUERY: Look up the recorded call for CCOC(=O)c1c(CN2CCCCC2)n(C)c2cc(Br)c(O)c(CN(C)C)c12 in this test.
RESULT: inactive

QUERY: Any idea what this test logged for [N-]=[N+]=NCCN1CCC(O)CCC1=O (stereo unspecified) ?
RESULT: inactive

QUERY: GET /call?item= Cc1ccc(NC(=O)C(=O)NCC2CCCN2S(=O)(=O)c2cccs2)cc1 (stereo unspecified) returns the recorded outcome of this test.
RESULT: inactive

QUERY: Hi, do you know how COc1cccc(C2C(C(C)=O)=C(O)C(=O)N2CCc2c[nH]c3ccccc23)c1 (stereo unspecified) came out in this test?
RESULT: inactive

QUERY: Short answer needed: outcome of this test for CN/C(=C/[N+](=O)[O-])NCCSCc1ccc(CN(C)C)o1 ?
RESULT: inactive

QUERY: Query: recorded result category for CC1CC(C)(C)N(C(=O)CN2C(=O)CCC2=O)c2ccccc21 (stereo unspecified) in this test
RESULT: inactive

QUERY: How did this test come out for Oc1c(Br)cc(Br)cc1/C=N/n1c(-c2ccccc2)n[nH]c1=S ?
RESULT: active

QUERY: Could you check what this test reported for CCOc1ccc(S(=O)(=O)N2CCN(CC(O)COc3cccc([N+](=O)[O-])c3)CC2)cc1 (stereo unspecified) ?
RESULT: inactive

QUERY: Short answer needed: outcome of this test for Cn1c(CCN2CCOCC2)nc2cc(NC(=O)COc3ccccc3)ccc21 ?
RESULT: inactive

QUERY: Just curious, what result did Cc1ccc(C(=O)O)cc1[N+](=O)[O-] get here?
RESULT: inactive

QUERY: Lab log entry: Cc1ccc(C2=NN(CC(=O)NCc3cccs3)C(=O)CC2)cc1 — outcome as called in the assay?
RESULT: inactive

QUERY: Would you mind telling me which call this test gave Cc1ccccc1Nc1c([N+](=O)[O-])ccc2c1=NC1(CCCCC1)N=2 ?
RESULT: inactive

QUERY: For CC(N=C(NC#N)Nc1ccncc1)C(C)(C)C (stereo unspecified) , which call appears in the assay record?
RESULT: inactive

QUERY: Status in this test for Cc1ccc2cccc(OCc3nnc(SCC(=O)O)n3C)c2n1 ?
RESULT: inactive

QUERY: Tell me the recorded outcome of this test for C=C(C)C(=O)Nc1cccnc1Oc1ccc(F)cc1F .
RESULT: inactive

QUERY: How did this test come out for Cc1nc2ccccc2c2ncccc12 ?
RESULT: inactive

QUERY: Name the outcome recorded for C=CSc1sc(Cl)c(N(C)C)c1[N+](=O)[O-] in the assay.
RESULT: inactive
